Known GI50 of a selection of compounds
Tested on: EKVX
PROTOCOL DETAILS: NCI tumour cell line growth inhibition, 48 h
The source made the active and inactive calls. No stated cut-off is given here; in the data, active = GI50 up to about 1.1 µM and inactive = higher. Where a SMILES comes first, the peptide text is derived from it. [ ]: non-standard residue; d: D form. The star is where a group is joined. Bn2Val = CC(C)[C@@H](C(=O)*)N(Cc1ccccc1)Cc1ccccc1; NH(3,4-diMeO-benzyl) = COc1ccc(CN*)cc1OC; NMeV = CN[C@H](C(=O)O)C(C)C
ATTRIBUTE MEASURED: GI50

| COMPOUND | SUBJECT OF TEST | RESULT VALUE |
| --- | --- | --- |
| CC(C)(C)OC(=O)C1CCC/C1=N/Nc1ccc([N+](=O)[O-])cc1[N+](=O)[O-] (stereo unspecified) | EKVX | 24.7 µM (inactive) |
| CCN(CC)CCOc1ccc(N2C(=O)c3cc(OC)c(OC)cc3C2=O)cc1 | EKVX | > 100 µM (inactive) |
| N#C[BH2-][n+]1cn(C2CC(O)C(COP(=O)(O)OC3CC(n4ccc(N)nc4=O)OC3CO)O2)c2nc(N)[nH]c(=O)c21 (stereo unspecified) | EKVX | > 100 µM (inactive) |
| CC1=C(C(=O)Nc2cc(F)c(F)cc2F)C(c2ccc(N(C)C)cc2)C(C(=O)Nc2cc(F)c(F)cc2F)=C(C)N1 | EKVX | 16 µM (inactive) |
| COc1ccc(CNC(=O)[C@@H]2CCCN2C(=O)[C@@H]2CCCN2C(=O)[C@H](C(C)C)N(C)C(=O)[C@@H](NC(=O)[C@H](C(C)C)N(Cc2ccccc2)Cc2ccccc2)C(C)C)cc1OC (Bn2Val-V[NMeV]PP-{NH(3,4-diMeO-benzyl)}) | EKVX | 13.4 µM (inactive) |
| CC1OC(OC2C(OC(=O)[C@]34CCC(C)(C)CC3C3=CCC5[C@@]6(C)C[C@H](O)[C@H](OC7OC(CO)C(O)C(O)C7N)[C@@](C)(C(=O)O)C6CC[C@@]5(C)C3(C)CC4)OCC(O)C2O)C(O)C(O)C1OC1OCC(O)C(O)C1O (stereo partly specified) | EKVX | > 100 µM (inactive) |

----------
System: CCRF-CEM
PROTOCOL DETAILS: NCI tumour cell line growth inhibition, 48 h
Calls of active or inactive are those of the source. No stated cut-off is given here; in the data, active = GI50 up to about 1.1 µM and inactive = higher.

| COMPOUND | GI50 |
| --- | --- |
| COc1cccc2nc3cc(C)c(C)cc3nc12 | > 100 µM (inactive) |
| COc1ccccc1/C=C/C1=NN(c2cccc(S(=O)(=O)O)c2)C2(C1)SCC(=O)N2c1nc2ccccc2s1 (stereo not given) | 23 µM (inactive) |
| COc1cc(OC)cc(C(=O)Cc2c(C(=O)c3ccccc3)c3ccccc3n2C(=O)c2ccccc2)c1 | 16 µM (inactive) |
| Cn1nc2ccc([N+](=O)[O-])c(Cn3nnc4ccccc43)c2n1 | > 100 µM (inactive) |
| CN1c2ccccc2S(=O)(=O)n2c(COc3ccc(Cl)cc3)nnc21 | 75.7 µM (inactive) |

----------
System: 786-0
PROTOCOL DETAILS: NCI tumour cell line growth inhibition, 48 h
The source made the active and inactive calls. Cut-off read from the data, not from the text of the source: active = GI50 up to about 1.1 µM and inactive = higher.
Outcomes: t (active), f (inactive)

| COMPOUND | CLASS |
| --- | --- |
| CC(=O)NC(CCCN)C(=O)NCc1ccccc1 (stereo not given) | f |
| O=C(O)c1ccc(NC(c2ccccc2)c2ccc3cccnc3c2O)cc1 (stereo not given) | f |
| CC(=O)OC1C(O)C(C)OC(OC2C(OC(=O)C3CCC4C(C3)OC3(CC(OC(=O)/C=C/c5ccccc5)C(C)CO3)C43CO3)OC(C)C(O)C2OC(C)=O)C1O (stereo not given) | t |
| CCOC(=O)CCc1c(C)c2c(OC(C)=O)cc(OC(C)=O)cc2oc1=O | f |
| COc1ccc(-c2cc3ccccc3[nH]c2=O)cc1OC | f |
